Recorded KA by entry
- RUN DESCRIPTION: The compound was tested for binding constant against d-Ala-d-Ala termini on bacterial cell surface
Only the number, expressed in mM⁻¹, is required.

- C[C@H](NC(=O)[C@H](C)NC(=O)CNS(=O)(=O)c1cccc2c(N(C)C)cccc12)C(=O)O: 1.1
- C[C@@H](NC(=O)[C@@H](C)NC(=O)CNS(=O)(=O)c1cccc2c(N(C)C)cccc12)C(=O)O: 1.3

Kindly review the next molecule as well.
Q: Supply measured KA of C[C@H](NC(=O)CNS(=O)(=O)c1cccc2c(N(C)C)cccc12)C(=O)N[C@H](C)C(=O)O in your reply.
Result: 16
